Molecular target: LATS1 (Homo sapiens, UniProt O95835)
Sequence (O95835 whole entry): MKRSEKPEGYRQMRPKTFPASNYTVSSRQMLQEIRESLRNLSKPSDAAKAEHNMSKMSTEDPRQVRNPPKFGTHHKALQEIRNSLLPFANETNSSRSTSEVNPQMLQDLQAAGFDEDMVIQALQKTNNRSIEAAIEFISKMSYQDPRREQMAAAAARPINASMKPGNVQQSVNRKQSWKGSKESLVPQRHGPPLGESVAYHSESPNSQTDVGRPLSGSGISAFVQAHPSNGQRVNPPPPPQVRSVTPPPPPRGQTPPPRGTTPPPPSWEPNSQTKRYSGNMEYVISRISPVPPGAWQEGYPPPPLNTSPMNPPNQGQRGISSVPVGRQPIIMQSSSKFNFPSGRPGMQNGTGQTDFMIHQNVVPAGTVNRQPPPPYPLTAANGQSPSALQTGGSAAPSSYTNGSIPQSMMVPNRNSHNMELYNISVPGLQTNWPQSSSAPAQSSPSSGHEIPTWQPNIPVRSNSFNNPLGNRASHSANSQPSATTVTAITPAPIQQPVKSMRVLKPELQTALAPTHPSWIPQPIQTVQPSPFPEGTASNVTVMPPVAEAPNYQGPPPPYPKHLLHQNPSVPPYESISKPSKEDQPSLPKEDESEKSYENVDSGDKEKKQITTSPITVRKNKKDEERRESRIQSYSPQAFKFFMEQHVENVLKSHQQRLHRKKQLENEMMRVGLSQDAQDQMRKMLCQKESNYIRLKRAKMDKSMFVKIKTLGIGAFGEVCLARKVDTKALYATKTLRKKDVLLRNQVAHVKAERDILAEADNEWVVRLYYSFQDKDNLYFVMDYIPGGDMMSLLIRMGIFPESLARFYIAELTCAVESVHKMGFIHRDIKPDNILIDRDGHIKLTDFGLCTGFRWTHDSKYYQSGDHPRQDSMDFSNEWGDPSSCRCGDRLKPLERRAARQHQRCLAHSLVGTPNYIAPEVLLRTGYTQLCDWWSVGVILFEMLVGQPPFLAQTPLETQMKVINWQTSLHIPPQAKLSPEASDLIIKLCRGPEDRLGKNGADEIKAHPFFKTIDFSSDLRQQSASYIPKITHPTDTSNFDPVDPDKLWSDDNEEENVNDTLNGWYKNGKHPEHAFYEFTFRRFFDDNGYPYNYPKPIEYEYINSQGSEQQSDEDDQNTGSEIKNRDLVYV
Test: RBC HotSpot kinase assay (33P-ATP, P81 filter-binding), LATS1
Type: biochemical
Settings: Table 28, biochemical kinase assay; read-out: LATS1 IC50
Measurement kind: IC50 (nM)

>>> endpoint_result("CN[C@@H](C)C(=O)N1C[C@@H](C)[C@](O)(c2c(C)cc(-c3ccnc4[nH]cc(F)c34)cc2F)[C@@H](C)C1 [Compound 315]")
11.6
>>> endpoint_result("CC(C)(C)Nc1cc(-c2ccnc3[nH]cc(F)c23)ccc1C1CCNCC1 [Compound 156]")
139
>>> endpoint_result("Fc1ccc(CNCc2ccc(-c3ccnc4[nH]ccc34)cc2Cl)cc1 [Compound 282]")
31.4

[P] CN1CCC(c2ccc(-c3ccnc4[nH]cc(F)c34)cc2Cl)CC1 [Compound 167]
[Q] Cc1cc(-c2ccnc3[nH]cc(F)c23)ccc1[C@@]1(O)[C@H](C)CN(C)C[C@@H]1C [Compound 43]
[R] NCC(=O)N1CCC(c2ccc(-c3ccnc4[nH]cc(F)c34)cc2Cl)CC1 [Compound 148]
[S] CCN(CC)c1cc(-c2ccnc3[nH]ccc23)ccc1CN [Compound 237]
[T] CCC(CC)Nc1cc(-c2ccnc3[nH]ccc23)ccc1CN [Compound 235]
Problem: Order each entry by recorded IC50, climbing from the minimum. # format: label list in the order the request specifies
Solution: Q, R, S, P, T

Cited source: patent US20250361230A1
